Origin of measurements: PubChem BioAssay (EPA / NIEHS)

assay: BSK_CASM3C_Proliferation: Cell Proliferation Assessment in the BioMAP Diversity Plus: CASM3C Assay (AID 2283047); conditions: primary human coronary artery smooth muscle cells;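 also: sulforhodamine B total protein stain as relative cell number at 560 nm; sub-confluent cells exposed 48 h before staining; fitted both ways against DMSO so gain or loss of cell number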
Activity calls are given as the source filed them. The calls were made as follows: active = hit-call score of the fitted dose curve at least 0.9, where 1 is the maximum; inactive = score below 0.9.
Give one outcome, nothing more. List: active, inactive

Some solved entries appear below for comparison.
compound: CCC(C)N(C)C(=O)c1cc2ccccc2c(-c2ccccc2Cl)n1 (stereo unspecified)
category.label: inactive
--
compound: CC(COCC(C)OC(=O)c1ccccc1)OC(=O)c1ccccc1 (stereo unspecified)
category.label: inactive
--
compound: CC(=O)OC1CC(C)OC(C)O1 (stereo unspecified)
category.label: inactive
--
compound: CCCCCCCCCCCCCCOS(=O)(=O)O
category.label: inactive
--
compound: CCCCCCCCCCCCCCCCO
category.label: inactive

Incoming: // return assay outcome for CCc1nc(N)nc(N)c1-c1ccc(Cl)cc1
Outgoing: inactive

Incoming: Returns: the outcome recorded for CC(C)c1cccc(C(C)C)c1NC(=O)NS(=O)(=O)c1cc(C(C)(C)O)co1 in this assay.
Outgoing: inactive

Incoming: Call for entry Cc1cn([C@H]2C=C[C@@H](CO)O2)c(=O)[nH]c1=O :
Outgoing: inactive
